- TGT: TREK-1 channel (hTREK-1/HEK cells) (Homo sapiens, UniProt O95069)
- Construct: expressed in transfected cells
- Sequence (O95069 whole entry): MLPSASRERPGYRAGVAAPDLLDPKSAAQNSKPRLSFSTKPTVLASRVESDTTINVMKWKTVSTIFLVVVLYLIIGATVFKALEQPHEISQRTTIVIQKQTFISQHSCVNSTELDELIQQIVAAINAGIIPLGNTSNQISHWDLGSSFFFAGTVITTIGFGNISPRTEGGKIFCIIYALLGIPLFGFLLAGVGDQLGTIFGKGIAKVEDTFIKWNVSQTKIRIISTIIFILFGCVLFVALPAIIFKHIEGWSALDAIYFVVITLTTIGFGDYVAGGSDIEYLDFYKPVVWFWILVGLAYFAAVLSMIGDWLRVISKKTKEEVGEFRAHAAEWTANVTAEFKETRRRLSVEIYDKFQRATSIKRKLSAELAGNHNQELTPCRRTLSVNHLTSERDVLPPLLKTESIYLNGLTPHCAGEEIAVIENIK
- TEST DETAILS: TREK-1 current inhibition, whole-cell patch-clamp on hTREK-1/HEK cell line
- Format: cell-based
- CONDITION INFO: HEK293, peptide 100 nM; TREK-1 first activated with 10 μM arachidonic acid (AA); current density at 0 mV; hTREK-1/HEK cells; mean ± SEM, n = cells; read-out: % of TREK-1 inhibition
Residues, ends and D or L forms follow the SMILES beside them. *: point of attachment. Biotin = O=C1N[C@H]2[C@H](CS[C@H]2CCCCC(=O)*)N1
MEASURED METRIC: inhibition at 0.1 µM

Past entries and their recorded results:
{"COMPOUND": "CC(C)C[C@H](NC(=O)CNC(=O)[C@H](Cc1c[nH]c2ccccc12)NC(=O)[C@H](CO)NC(=O)[C@@H](NC(=O)CN)C(C)C)C(=O)N[C@@H](CCCNC(=N)N)C(=O)O [PE 22-28] (H-GVSWGLR-OH)", "TGT": "TREK-1 channel (hTREK-1/HEK cells) (Homo sapiens, UniProt O95069)", "inhibition at 0.1 µM": "55.5%"}
{"COMPOUND": "CC[C@H](C)[C@H](NC(=O)[C@@H]1CCCN1C(=O)CCCC[C@@H]1SC[C@@H]2NC(=O)N[C@@H]21)C(=O)NCC(=O)N[C@H](C(=O)N[C@@H](CO)C(=O)N[C@@H](Cc1c[nH]c2ccccc12)C(=O)NCC(=O)N[C@@H](CC(C)C)C(=O)N[C@@H](CCCNC(=N)N)C(=O)O)C(C)C [Biotinylated-PI-PE 22-28] (Biotin-PIGVSWGLR-OH)", "TGT": "TREK-1 channel (hTREK-1/HEK cells) (Homo sapiens, UniProt O95069)", "inhibition at 0.1 µM": "49.1%"}

Next compound, inhibition at 0.1 µM to be filled in.
In: Entry CC[C@H](C)[C@H](NC(=O)[C@@H]1CCCN1C(=O)CNC(=O)[C@H](CO)NC(=O)[C@H](Cc1c[nH]c2ccccc12)NC(=O)[C@H](CCCNC(=N)N)NC(=O)[C@@H]1CCCN1C(=O)[C@H](CC(C)C)NC(=O)[C@@H]1CCCN1C(=O)[C@H](C)N)C(=O)NCC(=O)N[C@H](C(=O)N[C@@H](CO)C(=O)N[C@@H](Cc1c[nH]c2ccccc12)C(=O)NCC(=O)N[C@@H](CC(C)C)C(=O)O)C(C)C [PE 12-27] (H-APLPRWSGPIGVSWGL-OH) : reported inhibition at 0.1 µM = ?
Out: 28.4%

// data source = paper PMC5601071
